test system: Chlorella vulgaris; assay: Herbicidal activity against Chlorella vulgaris Beij assessed as decrease in chlorophyll content after 7 days; type: functional, organism-based; details: 168 h
observable: log10(IC50) (log10 of the value in µM)
Hey, these are logged values: log10 of IC50, µM being the unit before logging.

> print(dat)
                                   molecule  recorded.number
1  Cc1ccc2ccc(C(=O)NCCCNC(=O)c3ccc4ccc(C)nc4c3O)c(O)c2n1             2.17
2  Cc1ccc2c([N+](=O)[O-])cc(C(=O)NC(C)c3ccc(F)cc3)c(O)c2n1 (stereo not given)             1.64
3    Cc1ccc2c(O)c(C(=O)NCCCCc3ccccc3)ccc2n1             1.04

Parameters: items (list). Returns: log10(IC50) for each item.
1. Cc1ccc2ccc(C(=O)NCCNC(=O)c3ccc4ccc(C)nc4c3O)c(O)c2n1
2. Cc1ccc(CNC(=O)c2ccc3ccc(C)nc3c2O)cc1

1: 1.97; 2: 0.86

---

test system: Chlorella vulgaris; assay: Herbicidal activity against Chlorella vulgaris Beij assessed as decrease in chlorophyll content after 7 days; format: functional, organism-based; conditions: 168 h
Could you please report measured IC50 for the items listed next?
One number for each entry, in µM.

> print(dat)
                                   compound  experimental.target  recorded.number
1  Cc1ccc2c(O)c(C(=O)NC(=O)NC(=O)c3ccc4nc(C)ccc4c3O)ccc2n1   Chlorella vulgaris              5.5
2    Cc1ccc2c(O)c(C(=O)Nc3ccc(Cl)cc3)ccc2n1   Chlorella vulgaris             23.8
3  Cc1ccc2c(O)c(C(=O)NCCCNC(=O)c3ccc4nc(C)ccc4c3O)ccc2n1   Chlorella vulgaris             19.5
4    Cc1ccc2ccc(C(=O)NCCCCc3ccccc3)c(O)c2n1   Chlorella vulgaris              8.5
5   Cc1ccc2ccc(C(=O)NCCc3ccc(F)cc3)c(O)c2n1   Chlorella vulgaris             15.9

Parameters: items (list). Returns: IC50 for each item.
1. Cc1ccc2ccc(C(=O)NCc3ccc(F)cc3)c(O)c2n1
2. Cc1ccc2ccc(C(=O)NC(C)c3ccc(F)cc3)c(O)c2n1 (centres undefined)
3. COc1ccc(CNC(=O)c2ccc3ccc(C)nc3c2O)cc1
4. Cc1ccc2ccc(C(=O)NCc3ccccc3)c(O)c2n1

1: 158; 2: 83.3; 3: 4.8; 4: 17.2

---

assay: Lipophilicity, log K of the compound; assay type: physicochemical
observable: log K
One number for each entry.

> print(dat)
                                   compound  recorded.number
1       Cc1ccc2ccc(C(=O)NCc3ccccc3)c(O)c2n1           0.2812
2  Cc1ccc2c(O)c(C(=O)NC(C)c3ccc(F)cc3)ccc2n1 (stereo unspecified)           0.3663
3  Cc1ccc2c([N+](=O)[O-])cc(C(=O)NCc3ccc(F)cc3)c(O)c2n1           0.4136

Parameters: items (list). Returns: log K for each item.
1. Cc1ccc2c([N+](=O)[O-])cc(C(=O)NC(C)c3ccc(F)cc3)c(O)c2n1 (stereo unspecified)
2. Cc1ccc2c([N+](=O)[O-])cc(C(=O)NCc3ccccc3)c(O)c2n1
3. Cc1ccc2ccc(C(=O)NCCc3ccc(F)cc3)c(O)c2n1
4. Cc1ccc2ccc(C(=O)NCCO)c(O)c2n1
5. COc1ccc(CNC(=O)c2ccc3ccc(C)nc3c2O)cc1
6. Cc1ccc2c(O)c(C(=O)NC(=O)NC(=O)c3ccc4nc(C)ccc4c3O)ccc2n1
7. Cc1ccc2ccc(C(=O)NC(C)c3ccc(F)cc3)c(O)c2n1 (stereo unspecified)
8. Cc1ccc2ccc(C(=O)NCCc3ccccc3)c(O)c2n1

0.4283
0.4021
0.3342
0.2629
0.2843
0.612
0.372
0.2404

---

assay: Lipophilicity, log K of the compound; type: physicochemical
observable: log K
Give bare numbers.

Parameters: items (list). Returns: log K for each item.
1. Cc1ccc2ccc(C(=O)NCCCCc3ccccc3)c(O)c2n1
2. Cc1ccc2c(O)c(C(=O)Nc3ccc4c(O)c(C(=O)O)cc([N+](=O)[O-])c4n3)ccc2n1
3. Cc1ccc(CNC(=O)c2ccc3ccc(C)nc3c2O)cc1
4. Cc1ccc(CNC(=O)c2cc([N+](=O)[O-])c3ccc(C)nc3c2O)cc1
5. Cc1ccc2ccc(C(=O)NCc3ccc(F)cc3)c(O)c2n1
6. Cc1ccc2c(O)c(C(=O)NCCCCc3ccccc3)ccc2n1
7. COc1ccc(CNC(=O)c2cc([N+](=O)[O-])c3ccc(C)nc3c2O)cc1
8. Cc1ccc2c(O)c(C(=O)NCCc3ccc(O)cc3)ccc2n1

0.5075
0.4072
0.3793
0.4304
0.3389
0.4173
0.4087
0.3775

Parameters: items (list). Returns: log K for each item.
1. Cc1ccc(CNC(=O)c2ccc3nc(C)ccc3c2O)cc1
2. Cc1ccc2ccc(C(=O)NCCCNC(=O)c3ccc4ccc(C)nc4c3O)c(O)c2n1
3. Cc1ccc2c(O)c(C(=O)Nc3ccc(Cl)cc3)ccc2n1
4. Cc1ccc2ccc(C(=O)NCCNC(=O)c3ccc4ccc(C)nc4c3O)c(O)c2n1
5. Cc1ccc2c(O)c(C(=O)NCCCNC(=O)c3ccc4nc(C)ccc4c3O)ccc2n1

0.38
0.1168
0.3812
0.1109
0.1203
